I'd be grateful if you could share measured kcat/Km for these entries.
# Substrate: c1ccc([C@H]2CO2)cc1
# Assay Comment: purified protein
# Format: biochemical, Phanerodontia chrysosporium
# Applied Conditions: 10-80 mM SO, 37 °C, buffer pH 8.0
Form entry: enter the amount, then its unit.

Query: I have this protein here, PchEHA (epoxide hydrolase) (Phanerodontia chrysosporium; E251G/Y163H) (protein, catalytic triad D105/H308/D277) MDASLFKDFKTSRGFNYHYFYSPAKGPRPTLFFLHGNPSVATDWAQIVPHFTSRGYGVLAPDMLGYGDTDKPTDPALYVSSGMCRNLVDLLDHEGLEKVIAIGHDWGCLSVSRLASYYPERVIAYAFLAASFIGPIPPIPFDAFLEYIKQQVGYELYGYWKFHSEPGLDQFVRDHLDTFLSILWPSDPAVWKTRLAPTGALKQSALEGWTAPLAPYITEEFKKHHVEVFNKNGFEAPACYYRIMTSGLQAGDDKQILPERAVPPKDAPVFFGAANKDYICIPALAYATFKKDEWKDHKITIKEYDADHWLILSHADQVSRDLEAWIEGFASGGQ , and I need its recorded kcat/Km.
Response: 32500 M⁻¹ s⁻¹

Query: Thanks! And PchEHA (epoxide hydrolase) (Phanerodontia chrysosporium; A24T/E251G) (protein, catalytic triad D105/H308/D277) MDASLFKDFKTSRGFNYHYFYSPTKGPRPTLFFLHGNPSVATDWAQIVPHFTSRGYGVLAPDMLGYGDTDKPTDPALYVSSGMCRNLVDLLDHEGLEKVIAIGHDWGCLSVSRLASYYPERVIAYAFLAASFIGPIPPIPFDAFLEYIKQQVGYELYGYWKFYSEPGLDQFVRDHLDTFLSILWPSDPAVWKTRLAPTGALKQSALEGWTAPLAPYITEEFKKHHVEVFNKNGFEAPACYYRIMTSGLQAGDDKQILPERAVPPKDAPVFFGAANKDYICIPALAYATFKKDEWKDHKITIKEYDADHWLILSHADQVSRDLEAWIEGFASGGQ ?
Response: 25900 M⁻¹ s⁻¹

Query: Same question, PchEHA (epoxide hydrolase) (Phanerodontia chrysosporium; G14A/K291R/Y163H) (protein, catalytic triad D105/H308/D277) MDASLFKDFKTSRAFNYHYFYSPAKGPRPTLFFLHGNPSVATDWAQIVPHFTSRGYGVLAPDMLGYGDTDKPTDPALYVSSGMCRNLVDLLDHEGLEKVIAIGHDWGCLSVSRLASYYPERVIAYAFLAASFIGPIPPIPFDAFLEYIKQQVGYELYGYWKFHSEPGLDQFVRDHLDTFLSILWPSDPAVWKTRLAPTGALKQSALEGWTAPLAPYITEEFKKHHVEVFNKNGFEAPACYYRIMTSGLQAEDDKQILPERAVPPKDAPVFFGAANKDYICIPALAYATFKRDEWKDHKITIKEYDADHWLILSHADQVSRDLEAWIEGFASGGQ this time
Response: 36000 M⁻¹ s⁻¹

Query: Also PchEHA (epoxide hydrolase) (Phanerodontia chrysosporium; C108S/G14A/K291R) (protein, catalytic triad D105/H308/D277) MDASLFKDFKTSRAFNYHYFYSPAKGPRPTLFFLHGNPSVATDWAQIVPHFTSRGYGVLAPDMLGYGDTDKPTDPALYVSSGMCRNLVDLLDHEGLEKVIAIGHDWGSLSVSRLASYYPERVIAYAFLAASFIGPIPPIPFDAFLEYIKQQVGYELYGYWKFYSEPGLDQFVRDHLDTFLSILWPSDPAVWKTRLAPTGALKQSALEGWTAPLAPYITEEFKKHHVEVFNKNGFEAPACYYRIMTSGLQAEDDKQILPERAVPPKDAPVFFGAANKDYICIPALAYATFKRDEWKDHKITIKEYDADHWLILSHADQVSRDLEAWIEGFASGGQ ?
Response: 19700 M⁻¹ s⁻¹

Query: Now this one: PchEHA (epoxide hydrolase) (Phanerodontia chrysosporium) (protein, catalytic triad D105/H308/D277) MDASLFKDFKTSRGFNYHYFYSPAKGPRPTLFFLHGNPSVATDWAQIVPHFTSRGYGVLAPDMLGYGDTDKPTDPALYVSSGMCRNLVDLLDHEGLEKVIAIGHDWGCLSVSRLASYYPERVIAYAFLAASFIGPIPPIPFDAFLEYIKQQVGYELYGYWKFYSEPGLDQFVRDHLDTFLSILWPSDPAVWKTRLAPTGALKQSALEGWTAPLAPYITEEFKKHHVEVFNKNGFEAPACYYRIMTSGLQAEDDKQILPERAVPPKDAPVFFGAANKDYICIPALAYATFKKDEWKDHKITIKEYDADHWLILSHADQVSRDLEAWIEGFASGGQ
Response: 34400 M⁻¹ s⁻¹
